Quick list: pIC50 per entry.
- Target Under Test: proton pump (H+/K+-ATPase) (Sus scrofa)
- Construct: Gastric vesicles were prepared from hog stomach via centrifugal separation; from tissue; host or cells: hog stomach (gastric vesicles, method of Rabon et al. 1988)
- Sequence (P19156 whole entry): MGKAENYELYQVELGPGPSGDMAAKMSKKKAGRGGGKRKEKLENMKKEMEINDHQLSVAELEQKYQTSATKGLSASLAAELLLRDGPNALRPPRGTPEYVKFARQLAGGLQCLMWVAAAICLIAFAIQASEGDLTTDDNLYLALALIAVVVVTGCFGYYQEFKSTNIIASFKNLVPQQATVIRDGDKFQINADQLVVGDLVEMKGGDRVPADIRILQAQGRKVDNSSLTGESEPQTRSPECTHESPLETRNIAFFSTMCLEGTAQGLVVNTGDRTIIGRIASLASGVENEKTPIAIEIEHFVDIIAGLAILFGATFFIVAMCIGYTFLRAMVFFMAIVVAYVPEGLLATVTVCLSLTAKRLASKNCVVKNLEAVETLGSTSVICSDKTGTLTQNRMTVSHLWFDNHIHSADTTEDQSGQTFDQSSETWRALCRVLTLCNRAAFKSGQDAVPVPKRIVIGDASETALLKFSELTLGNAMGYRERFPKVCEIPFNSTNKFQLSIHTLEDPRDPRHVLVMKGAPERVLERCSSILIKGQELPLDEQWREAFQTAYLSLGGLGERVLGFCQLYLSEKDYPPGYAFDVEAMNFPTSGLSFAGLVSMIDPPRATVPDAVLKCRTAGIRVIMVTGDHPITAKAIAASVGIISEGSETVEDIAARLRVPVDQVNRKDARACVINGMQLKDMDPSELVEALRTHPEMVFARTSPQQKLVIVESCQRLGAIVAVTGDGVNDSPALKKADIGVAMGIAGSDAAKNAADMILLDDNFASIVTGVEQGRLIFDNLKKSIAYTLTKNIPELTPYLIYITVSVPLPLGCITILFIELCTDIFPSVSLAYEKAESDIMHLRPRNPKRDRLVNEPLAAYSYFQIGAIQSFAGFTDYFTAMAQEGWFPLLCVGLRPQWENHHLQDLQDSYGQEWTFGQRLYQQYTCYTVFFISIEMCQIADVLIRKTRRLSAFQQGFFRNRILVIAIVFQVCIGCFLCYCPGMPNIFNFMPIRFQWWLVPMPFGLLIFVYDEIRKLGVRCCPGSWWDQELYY
- Sequence (P18434 whole entry partner): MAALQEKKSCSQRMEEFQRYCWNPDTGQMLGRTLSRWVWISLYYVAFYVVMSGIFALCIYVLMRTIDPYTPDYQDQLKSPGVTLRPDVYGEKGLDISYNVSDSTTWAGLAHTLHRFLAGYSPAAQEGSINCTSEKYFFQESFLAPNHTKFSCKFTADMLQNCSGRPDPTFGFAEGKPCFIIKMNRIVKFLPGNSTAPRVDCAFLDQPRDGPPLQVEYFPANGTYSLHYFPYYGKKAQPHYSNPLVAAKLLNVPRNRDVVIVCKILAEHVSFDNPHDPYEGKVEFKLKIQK
- Method Summary: Measurement of inhibitory effects on proton pump (H+/K+-ATPase) activities
- Assay type: biochemical
- Test Parameters: hog gastric vesicles, K+-specific H+/K+-ATPase activity, Tris-HCl buffer pH 7.4, 37° C. for 40 minutes, malachite green Pi readout
pIC50: −log10 of the molar value. Structures can show the parent of a compound that is named as a salt.
Result Type: pIC50

- Compound: "CNCc1cn(S(=O)(=O)c2cccc(OC(F)(F)F)c2)c2cc(Nc3ccc(OC(F)(F)F)cc3OC)ccc12 [Example 202, hydrochloride]"
  Result Type: "pIC50"
  Result Number: 6.24
- Compound: "COC(=O)c1cn(S(=O)(=O)c2cccnc2)c2cc(-c3ccc(OC)nc3)ccc12 [Example 338]"
  Result Type: "pIC50"
  Result Number: 5.46
- Compound: "CNCc1cn(S(=O)(=O)c2cccc(Cl)c2)c2cc(Cc3ccc(OC)nc3Cl)ccc12 [Example 293]"
  Result Type: "pIC50"
  Result Number: 6.26
- Compound: "CNCc1cn(S(=O)(=O)c2cccnc2)c2cc(Nc3ccc(F)nc3C)ccc12 [Example 116, hydrochloride]"
  Result Type: "pIC50"
  Result Number: 5.80
- Compound: "CNCc1cn(S(=O)(=O)c2cccnc2)c2cc(Cc3ccc(C)nc3Cl)ccc12 [Example 284, hydrochloride]"
  Result Type: "pIC50"
  Result Number: 6.00
- Compound: "CNCc1cn(S(=O)(=O)c2cccnc2)c2cc(Nc3cc(F)c(Br)cc3F)ccc12 [Example 79, hydrochloride]"
  Result Type: "pIC50"
  Result Number: 5.86
- Compound: "CNCc1cn(S(=O)(=O)c2cccc(OC)c2)c2cc(Nc3ccc(C)nc3F)ccc12 [Example 171, hydrochloride]"
  Result Type: "pIC50"
  Result Number: 6.20
- Compound: "CNCc1cn(S(=O)(=O)c2cccc(F)c2)c2cc(Nc3ccc(OC)cc3F)ccc12 [Example 139, hydrochloride]"
  Result Type: "pIC50"
  Result Number: 6.74
- Compound: "CNCc1cn(S(=O)(=O)c2cccnc2)c2cc(Nc3c(F)c(F)cc(F)c3F)ccc12 [Example 95, hydrochloride]"
  Result Type: "pIC50"
  Result Number: 6.32
- Compound: "CCNCc1cn(S(=O)(=O)c2cccc(C(F)(F)F)c2)c2cc(Nc3ccc(OC)nc3Cl)ccc12 [Example 317]"
  Result Type: "pIC50"
  Result Number: 5.72
- Compound: "CNCc1cn(S(=O)(=O)c2ccc(C)cc2)c2cc(Nc3ccc(C)cc3F)ccc12 [Example 229, hydrochloride]"
  Result Type: "pIC50"
  Result Number: 5.95
- Compound: "CNCc1cn(S(=O)(=O)c2cccc(C(F)(F)F)c2)c2cc(Cc3ccc(OC)nc3Cl)ccc12 [Example 294, hydrochloride]"
  Result Type: "pIC50"
  Result Number: 6.20
- Compound: "CNCc1cn(S(=O)(=O)c2cccc(Cl)c2)c2cc(Nc3ccc(C)nc3F)ccc12 [Example 158, hydrochloride]"
  Result Type: "pIC50"
  Result Number: 6.39
- Compound: "CNCc1cn(S(=O)(=O)c2cccc(F)c2)c2cc(Nc3ccc(Cl)nc3C(F)(F)F)ccc12 [Example 143, hydrochloride]"
  Result Type: "pIC50"
  Result Number: 6.54
